- target.system: T1, canine NGF (canine, UniProt Q29074 110-229 (pig entry), limits assumed)
- T1 construct: The protein was secreted from CHO cells and purified; also called cNGF; canine β-NGF
- T1 chain: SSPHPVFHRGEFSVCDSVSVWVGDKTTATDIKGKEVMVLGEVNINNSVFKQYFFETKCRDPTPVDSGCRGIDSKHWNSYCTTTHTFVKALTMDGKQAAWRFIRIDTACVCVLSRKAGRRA
- method.summary: SPR (Biacore T200), 100 nM mAb on NGF chip, similarity to parent mAb
Recorded Percent Similarity Score (KD on cN), one value per entry.
metric.name: Percent Similarity Score (KD on cN) (%)

[[record]]
binder = "can48L2VL_L96A (antibody, V domains shown, CDR scanning mutant of ZTS-842 (48L2)) VH: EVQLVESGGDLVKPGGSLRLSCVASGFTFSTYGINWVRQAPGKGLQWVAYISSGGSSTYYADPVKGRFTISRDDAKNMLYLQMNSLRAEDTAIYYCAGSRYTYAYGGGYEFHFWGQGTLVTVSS VL: QAVLNQPASVSGALGQKVTISCSGSTMDIDIFGVSWYQQLPGKAPKLLVDSDGDRPSGIPDRFSGSRSGNSGTLTITGLQAEDEADYHCQSGDSTAGALAIFGGGTHVTVL"
readout_units = "%"
measured_result = 90

[[record]]
binder = "can9L12VL_H99A (antibody, V domains shown) VH: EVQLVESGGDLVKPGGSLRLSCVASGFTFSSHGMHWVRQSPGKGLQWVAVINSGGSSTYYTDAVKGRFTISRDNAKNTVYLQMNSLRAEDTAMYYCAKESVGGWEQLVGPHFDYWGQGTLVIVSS VL: QSVLTQPTSVSGSLGQRVTISCSGSTNNIGILGASWYQLFPGKAPKLLVYGNGNRPSGVPDRFSGADSGDSVTLTITGLQAEDEADYYCQSFDTTLGAAVFGGGTHLTVL"
readout_units = "%"
measured_result = 100

[[record]]
binder = "can9L12VH_Y114A (antibody, V domains shown) VH: EVQLVESGGDLVKPGGSLRLSCVASGFTFSSHGMHWVRQSPGKGLQWVAVINSGGSSTYYTDAVKGRFTISRDNAKNTVYLQMNSLRAEDTAMYYCAKESVGGWEQLVGPHFDAWGQGTLVIVSS VL: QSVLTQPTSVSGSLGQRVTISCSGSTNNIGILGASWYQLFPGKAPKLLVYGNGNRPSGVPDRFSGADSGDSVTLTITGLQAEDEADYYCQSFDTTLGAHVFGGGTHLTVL"
readout_units = "%"
measured_result = 100

[[record]]
binder = "can9L12VL_T26A (antibody, V domains shown) VH: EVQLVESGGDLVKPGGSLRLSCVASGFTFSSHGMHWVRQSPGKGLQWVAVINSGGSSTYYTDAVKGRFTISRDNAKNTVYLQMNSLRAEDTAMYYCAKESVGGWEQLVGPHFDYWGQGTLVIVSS VL: QSVLTQPTSVSGSLGQRVTISCSGSANNIGILGASWYQLFPGKAPKLLVYGNGNRPSGVPDRFSGADSGDSVTLTITGLQAEDEADYYCQSFDTTLGAHVFGGGTHLTVL"
readout_units = "%"
measured_result = 100

[[record]]
binder = "can9L12VL_S91A (antibody, V domains shown) VH: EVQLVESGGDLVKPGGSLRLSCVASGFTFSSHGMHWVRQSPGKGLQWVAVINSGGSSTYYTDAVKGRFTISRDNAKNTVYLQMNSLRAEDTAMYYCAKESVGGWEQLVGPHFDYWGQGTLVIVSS VL: QSVLTQPTSVSGSLGQRVTISCSGSTNNIGILGASWYQLFPGKAPKLLVYGNGNRPSGVPDRFSGADSGDSVTLTITGLQAEDEADYYCQAFDTTLGAHVFGGGTHLTVL"
readout_units = "%"
measured_result = 39.3

[[record]]
binder = "can9L12VL_G97A (antibody, V domains shown) VH: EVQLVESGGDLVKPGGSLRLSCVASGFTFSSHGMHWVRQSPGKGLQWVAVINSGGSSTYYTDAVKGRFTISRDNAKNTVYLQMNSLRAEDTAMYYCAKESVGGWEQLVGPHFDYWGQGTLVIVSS VL: QSVLTQPTSVSGSLGQRVTISCSGSTNNIGILGASWYQLFPGKAPKLLVYGNGNRPSGVPDRFSGADSGDSVTLTITGLQAEDEADYYCQSFDTTLAAHVFGGGTHLTVL"
readout_units = "%"
measured_result = 98.9

[[record]]
binder = "can48L2VH_F113A (antibody, V domains shown, CDR scanning mutant of ZTS-842 (48L2)) VH: EVQLVESGGDLVKPGGSLRLSCVASGFTFSTYGINWVRQAPGKGLQWVAYISSGGSSTYYADPVKGRFTISRDDAKNMLYLQMNSLRAEDTAIYYCAGSRYTYAYGGGYEFHAWGQGTLVTVSS VL: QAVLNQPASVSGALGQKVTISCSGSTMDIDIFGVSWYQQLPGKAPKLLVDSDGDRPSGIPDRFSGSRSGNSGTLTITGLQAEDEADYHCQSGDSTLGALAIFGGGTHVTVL"
readout_units = "%"
measured_result = 33.7

[[record]]
binder = "can9L12VL_N27A (antibody, V domains shown) VH: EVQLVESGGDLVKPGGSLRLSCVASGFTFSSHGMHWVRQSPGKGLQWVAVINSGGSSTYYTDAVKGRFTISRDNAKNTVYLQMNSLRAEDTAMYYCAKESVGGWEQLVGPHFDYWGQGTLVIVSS VL: QSVLTQPTSVSGSLGQRVTISCSGSTANIGILGASWYQLFPGKAPKLLVYGNGNRPSGVPDRFSGADSGDSVTLTITGLQAEDEADYYCQSFDTTLGAHVFGGGTHLTVL"
readout_units = "%"
measured_result = 100

[[record]]
binder = "can48L2VL_G33A (antibody, V domains shown, CDR scanning mutant of ZTS-842 (48L2)) VH: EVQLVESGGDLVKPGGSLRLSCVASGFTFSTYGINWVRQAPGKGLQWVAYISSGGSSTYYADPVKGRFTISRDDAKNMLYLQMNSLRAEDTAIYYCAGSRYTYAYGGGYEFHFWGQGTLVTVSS VL: QAVLNQPASVSGALGQKVTISCSGSTMDIDIFAVSWYQQLPGKAPKLLVDSDGDRPSGIPDRFSGSRSGNSGTLTITGLQAEDEADYHCQSGDSTLGALAIFGGGTHVTVL"
readout_units = "%"
measured_result = 17.5

[[record]]
binder = "can9L12VL_G53A (antibody, V domains shown) VH: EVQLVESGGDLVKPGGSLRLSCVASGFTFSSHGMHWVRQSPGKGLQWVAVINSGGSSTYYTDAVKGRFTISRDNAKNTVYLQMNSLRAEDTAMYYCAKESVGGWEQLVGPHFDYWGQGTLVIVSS VL: QSVLTQPTSVSGSLGQRVTISCSGSTNNIGILGASWYQLFPGKAPKLLVYGNANRPSGVPDRFSGADSGDSVTLTITGLQAEDEADYYCQSFDTTLGAHVFGGGTHLTVL"
readout_units = "%"
measured_result = 34.2


Entry source: patent US20210221899A1
